target.or.test.system: T1, glypican-2 (GPC2), as used in the binding affinity test (UniProt Q8N158 24-553, limits assumed)
T1 construct: It states neither the form of the antigen nor the assay
T1 sequence (looked up): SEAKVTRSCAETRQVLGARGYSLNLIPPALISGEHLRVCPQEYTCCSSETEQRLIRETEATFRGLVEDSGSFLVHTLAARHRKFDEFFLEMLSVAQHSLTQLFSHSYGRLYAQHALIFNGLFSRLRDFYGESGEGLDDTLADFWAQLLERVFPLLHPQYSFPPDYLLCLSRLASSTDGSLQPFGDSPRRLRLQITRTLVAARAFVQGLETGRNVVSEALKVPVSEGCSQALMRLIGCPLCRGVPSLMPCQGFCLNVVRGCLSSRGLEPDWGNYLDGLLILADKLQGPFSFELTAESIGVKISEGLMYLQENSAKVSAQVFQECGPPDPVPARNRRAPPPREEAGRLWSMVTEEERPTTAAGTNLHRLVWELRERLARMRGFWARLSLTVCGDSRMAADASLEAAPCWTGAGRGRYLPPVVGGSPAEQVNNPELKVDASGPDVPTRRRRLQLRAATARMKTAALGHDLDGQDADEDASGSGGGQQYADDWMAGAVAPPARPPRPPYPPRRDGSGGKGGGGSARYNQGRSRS
procedure.summary: binding affinity for GPC2; method not stated (graphs in FIGS. 7A-7B)
measurement.kind: binding affinity (nM)
Hi! Could you send only the number? It should be in nM, unit omitted.

GET /values?readout=binding affinity&item= hCT3-2 (humanized CT3 antibody) (antibody, V domains shown) VH: QVQLVQSGAEVKKPGASVKVSCKASRFTFTDYNIHWVRQAPGQRLEWIGYINPNNGDIFYKQKFNGRVTITRDTSASTAYMELSSLRSEDTAVYYCVRSSNIRYTFDRFFDVWGQGTLVTVS VL: DVVMTQSPAFLSVTPGEKVTITCRASSSVNYIYWYQQKPDQAPKLWIYYTSNLAPGVPSRFSGSGSGTDFTFTISSLEAEDAATYYCQQFSSSPSTFGQGTKLEIK
3.6
